Answer each item with its documented pIC50.
test: Cytotoxicity against human HPDEC cells assessed as reduction in cell growth incubated for 72 hrs by MTT assay
Kindly note that pIC50 refers to -log10 of the concentration in mol/L and answer with the value alone.

Q) Which value of pIC50 has been reported for CNC(=O)c1ccccc1Nc1nc(Nc2ccc(N3CCOCC3)cc2OC)ncc1Cl in the records?
A) 4.94

Q) Need pIC50 of CNC(=O)c1ccccc1Nc1nc(Nc2ccc(OCC(=O)N3CCOCC3)cc2)ncc1Cl , thanks.
A) 5.32

Q) Look up pIC50: CNC(=O)c1ccccc1Nc1nc(Nc2ccc(CC(=O)N3CCOCC3)cc2)ncc1Cl
A) 5.18

Q) What does the data say about its pIC50? Entry: CNC(=O)c1ccccc1Nc1nc(Nc2ccc(SCC(=O)N3CCOCC3)cc2)ncc1Cl
A) 5.70

Q) If you can, please state the reported pIC50 value of CCC(Oc1ccc(Nc2ncc(Cl)c(Nc3ccccc3C(=O)NC)n2)cc1)C(=O)N1CCOCC1 (configuration not stated) .
A) 5.66

Q) Please give the measured pIC50 for this compound: CNC(=O)c1ccccc1Nc1nc(Nc2ccc(OC(C)C(=O)N3CCOCC3)cc2)ncc1Cl (configuration not stated)
A) 5.98

Q) Which pIC50 value is on record for O=C(NC1CC1)c1ccccc1Nc1nc(Nc2ccc(OCC(=O)N3CCOCC3)cc2)ncc1Cl ?
A) 4.78

* * *

test system: L02; assay: Cytotoxicity against human L02 cells assessed as reduction in cell growth incubated for 72 hrs by MTT assay; settings: L02, 72 h
With a cut-off of 0.7 µM, any IC50 strictly below it is called satisfied; any IC50 meeting it or above is called not satisfied.

Q) Field: below-cutoff. Rule: recorded IC50 strictly less than 0.7 µM. Subject: CNC(=O)c1ccccc1Nc1nc(Nc2ccc(OC(C)C(=O)N3CCOCC3)cc2)ncc1Cl (stereo unspecified)
A) not satisfied

Q) Consider CNC(=O)c1ccccc1Nc1nc(Nc2ccc(OCC(=O)N3CCOCC3)cc2)ncc1Cl . Does its IC50 lie strictly below 0.7 µM?
A) satisfied

Q) Determine if CNC(=O)c1ccccc1Nc1nc(Nc2ccc(CC(=O)N3CCOCC3)cc2)ncc1Cl shows IC50 strictly lower than 0.7 µM.
A) not satisfied

Q) Hi there! Is IC50 for CNC(=O)c1ccccc1Nc1nc(Nc2ccc(SCC(=O)N3CCOCC3)cc2)ncc1Cl below 0.7 µM, do you know?
A) not satisfied

Q) I'd appreciate it if you could check whether O=C(NC1CC1)c1ccccc1Nc1nc(Nc2ccc(OCC(=O)N3CCOCC3)cc2)ncc1Cl has IC50 smaller than 0.7 µM.
A) not satisfied

Q) Determine if CCC(Oc1ccc(Nc2ncc(Cl)c(Nc3ccccc3C(=O)NC)n2)cc1)C(=O)N1CCOCC1 (stereo unspecified) shows IC50 strictly lower than 0.7 µM.
A) satisfied

* * *

So I've got a bunch of molecules here, and I need their IC50 values.
test system: BXPC-3; assay: Antiproliferative activity against human BxPC3 cells assessed as reduction in cell growth incubated for 72 hrs by MTT assay; details: BXPC-3, 72 h
Lab book: enter the figure in µM, no units written.

Q) So what IC50 did CNC(=O)c1ccccc1Nc1nc(Nc2ccc(SCC(=O)N3CCOCC3)cc2)ncc1Cl get with BXPC-3?
A) 2.89

Q) What is its IC50 for BXPC-3? Entry: CNC(=O)c1ccccc1Nc1nc(Nc2ccc(CC(=O)N3CCOCC3)cc2)ncc1Cl
A) 0.09

Q) Lab request: please report IC50 under test system BXPC-3 for CNC(=O)c1ccccc1Nc1nc(Nc2ccc(OC(C)C(=O)N3CCOCC3)cc2)ncc1Cl (configuration not stated)
A) 5.34

Q) Identify the measured IC50 of CCC(Oc1ccc(Nc2ncc(Cl)c(Nc3ccccc3C(=O)NC)n2)cc1)C(=O)N1CCOCC1 (configuration not stated) for BXPC-3.
A) 8.73

Q) Fill in the recorded IC50 for this molecule, with BXPC-3 as test system: CNC(=O)c1ccccc1Nc1nc(Nc2ccc(OCC(=O)N3CCOCC3)cc2)ncc1Cl
A) 5.99

Source listed as ChEMBL document CHEMBL4346700.
